Attribute: nuclei count
assay: endothelial E-selectin expression blockers – imaging, HUVEC, immunofluorescence, MLSMR starter and 10KST1 sets, primary screen (AID 487); conditions: HUVEC TNFalpha-induced E-selectin immunofluorescence imaging, at 2 µM; measured here: cell number, toxicity;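 note: 100% = median nuclei count of all wells on the same plate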
Report the figure in % without appending any unit label.

Examples with their reported nuclei count follow.
Cc1cc(C(=O)Nc2c(C)n(C)n(-c3ccccc3)c2=O)c(C)o1 :: 100
Cc1nc2nc(-c3cccnc3)nn2c(C)c1Cl :: 107
CCOC(=O)c1sc(NC(=O)CNC(=O)Cn2cnc3sc(C)c(C)c3c2=O)nc1C :: 109

Record request: nuclei count value, item CSc1nnc(-c2ccccc2)n1C
108

Look up nuclei count for this compound: CCOC(=O)N1CCC(NC(=O)Cn2cc3c(n2)CCC(C)C3)CC1 (stereo not drawn)
101

What value of nuclei count has been reported for the following compound? Cc1ccc(-c2nc(N)n(C(=O)c3cccnc3)n2)cc1
109

What value of nuclei count has been reported for the following compound? CCOc1ccccc1NC(=O)N1C2CCCC1CC(NC(=O)C1CC1)C2 (stereo not drawn)
97.6

I am curious: what nuclei count value has been reported for CC(C)CNS(=O)(=O)c1ccc(CCC(=O)NCc2ccco2)cc1 ?
137

----------
Listing of entries alongside the reported slope.
target: Alpha-2C adrenergic receptor (Homo sapiens) (UniProt P18825); experiment: compounds altering alpha2C-coupled GIRK flux – cell-based, HEK293 alpha2C/GIRK1/2, thallium flux, primary screen (AID 624); conditions: thallium flux BTC fluorescence, at 10 µM, actives lie on both sides;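 note: slope of fluorescence ratio to pre-addition baseline per second over 15 to 24 s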
Sequence (P18825 whole entry, looked up): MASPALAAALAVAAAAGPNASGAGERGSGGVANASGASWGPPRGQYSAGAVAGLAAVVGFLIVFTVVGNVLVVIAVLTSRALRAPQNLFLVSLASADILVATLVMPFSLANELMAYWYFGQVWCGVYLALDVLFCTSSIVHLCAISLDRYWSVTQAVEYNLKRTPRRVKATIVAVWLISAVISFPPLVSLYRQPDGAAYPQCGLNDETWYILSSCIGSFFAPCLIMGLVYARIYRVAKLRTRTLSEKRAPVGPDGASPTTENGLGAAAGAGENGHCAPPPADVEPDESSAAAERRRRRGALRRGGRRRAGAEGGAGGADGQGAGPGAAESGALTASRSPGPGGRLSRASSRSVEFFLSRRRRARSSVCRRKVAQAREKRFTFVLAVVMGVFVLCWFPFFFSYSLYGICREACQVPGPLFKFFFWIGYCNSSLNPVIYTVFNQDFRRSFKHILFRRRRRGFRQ
Active and inactive are the calls of the source.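 The calls were made as follows: active = fluorescence slope after compound addition differing from the mean of all screened samples at 99.7% confidence, in either direction; inactive = the rest.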

Examples from the recorded data:
Cc1cc(C(=O)Nc2sc3c(c2C#N)CCCCC3)cs1 :: 0.00236 (inactive)
O=c1oc2c3c4c(cc2cc1-c1nc2ccccc2[nH]1)CCCN4CCC3 :: 0.00239 (inactive)
CCOC(=O)c1sc(NC(=O)CSc2nnnn2-c2ccccc2)c(C(=O)OCC)c1C :: 0.00928 (inactive)
COc1cccc(Nc2nnc(SCC(=O)N3CC(C)OC(C)C3)s2)c1 (configuration not stated) :: 0.00562 (inactive)
NS(=O)(=O)c1ccc(NC(=O)N[C@@H](Cc2ccccc2)C(=O)O)cc1 :: 0.00476 (inactive)
COCCCNCC(=O)Nc1ccc(OC(F)(F)F)cc1 :: 0.00627 (inactive)
Nc1cc(N)nc(SCc2ccccc2)n1 :: 0.00402 (inactive)
Cc1cc(NC(=O)C23CCC(C)(C(=O)O2)C3(C)C)no1 (configuration not stated) :: 0.00569 (inactive)

Look up slope for this compound: CCC(=O)Nc1ccc(NC(=O)c2ccccn2)cn1
0.00517 (inactive)

// query slope value for entry O=C(CN(CC1CCCO1)S(=O)(=O)c1ccc(S(=O)(=O)NC2CC2)cc1)Nc1ccccc1 (configuration not stated)
0.00436 (inactive)

What value of measured slope is listed for CCOC(=O)n1c(SCC(=O)N(CC)CC)nc2ccccc21 ?
0.00594 (inactive)

Tell me the measured slope of COc1ccc(S(=O)(=O)Nc2cccc(C)n2)c2ccccc12 , please.
0.00605 (inactive)

----------
test: TLR3 IRF3 reporter activation blockers – cell-based, poly I:C stimulus, luciferase, 10K MLSCN set, primary screen (AID 602277); settings: HEK293-TLR3 RL24 IRF3 luciferase reporter, at 10 µM, stronger effect = higher value
endpointName: inhibition (%)
Numeric answer only, unit % assumed.

Past entries and their recorded results:
CCOC(=O)CSc1nn(C)c(=S)s1 :: 21.1
O=C(CSc1nc2cc(S(=O)(=O)N3CCOCC3)ccc2o1)NC1CCCc2ccccc21 (stereo not given) :: 99.3
Cc1ccc2occ(CN3CCN(c4ccccc4)CC3)c(=O)c2c1 :: 18.1

API: the following record is the query input.
Need inhibition, item CC1Cc2ccccc2N1C(=O)CSc1nnc2n1C(C)(C)Cc1ccccc1-2 (stereo not given)
-63.7

----------
target: Voltage-gated potassium channel subunit beta-2 (Rattus norvegicus); experiment: inhibitors of rat Kvbeta2 reductase activity – biochemical, NADPH fluorescence, primary screen (AID 622); conditions: recombinant KvBeta, 4-cyanobenzaldehyde reduction, at 10 µM, stronger effect = higher value;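 note: slope of raw intensity against log time taken from 70 to 1610 s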
Rule: fluorescence slope of -0.5 or more gives condition met; anything lower gives condition not met.

CC(=O)c1c(C)[nH]c(C(=O)Nc2ccc3c(c2)OCCO3)c1C :: condition not met

Decide: fluorescence slope of Cc1oc2c(c1C(=O)NCc1ccccc1)CCCC2 >= -0.5?
condition met

API: above_or_equal(metric=fluorescence slope, cutoff=-0.5) for item O=C(O)c1[nH]c2ccc(Cl)cc2c1CC(=O)N1CCN(C(=O)c2ccco2)CC1
condition met

Hi team, for NC(=O)c1sc2nc(N3CCCCC3)c3c(c2c1N)CCCC3 , is the recorded fluorescence slope at or above -0.5?
condition met

Check this compound for fluorescence slope at or above -0.5: COc1ccccc1N(C)S(=O)(=O)c1ccc(C(=O)NC2=NCCS2)cc1
condition not met

Could you please find out whether CC1Cc2ccccc2N1C(=O)CSc1nc2ccccc2n1CC(=O)N1CCOCC1 (stereo not drawn) has fluorescence slope that meets -0.5 or exceeds it?
condition not met

----------
assay: TLR3 IRF3 reporter activation blockers – cell-based, poly I:C stimulus, luciferase, 10K MLSCN set, primary screen (AID 602277); details: HEK293-TLR3 RL24 IRF3 luciferase reporter, at 10 µM, stronger effect = higher value
Each entry below carries its reported inhibition.
Kindly provide the numeric value in % only, without the unit symbol.

Worked cases, inhibition given:
CN1CCN(S(=O)(=O)c2ccc(NC(=O)Nc3cccc(Cl)c3)cc2)CC1 :: -11.1
CCCCN(CCCC)CCCNC(=O)CC1Oc2ccc(C)cc2NC1=O (stereo not given) :: 23.7
COc1ccc(Cc2nc(-c3ccc(Br)cc3)no2)cc1 :: -62.7
CN(C)c1ccc(C(=O)OCC(=O)NC2CCCCC2)cc1 :: 10.9
CCC(=O)Nc1ccc(NC(=O)c2ccccn2)cn1 :: 99.2
CCOC(=O)c1sc(NS(=O)(=O)c2ccc(NC(C)=O)cc2)nc1C :: 19.8
O=C(CCC(=O)N(c1cccc(F)c1)C(C(=O)NC1CCCC1)c1ccncc1)Nc1cccnc1 (stereo not given) :: 20.4
O=C(Nc1ccccc1C(=O)O)c1cccc(NC(=O)c2ccc(Br)o2)c1 :: 8.3

What inhibition value was documented for this compound, Cn1c(=N)c(S(=O)(=O)c2ccccc2)cc2c(=O)n3ccccc3nc21 ?
-10.5

# query: inhibition of entry O=C(O)CCc1ccc(-c2cccs2)n1CCC(=O)O
20.5

Fill in: inhibition of COc1ccc(NC(=O)c2oc3ccc(S(=O)(=O)N4CCC5(CC4)OCCO5)cc3c2C)cc1 is ___
10.5

Requested read-out: inhibition. Entry: CC(=O)NCCn1ccc2ccccc21
20.7

Form field: reported inhibition of COc1cc(OC)cc(-c2nc3cc(C)ccc3o2)c1
-45.9

Reported inhibition, compound Cc1cc(C)n(C(=O)C23CC4CC(CC(C4)C2)C3)n1 : ____
17.9

Look up inhibition for this compound: O=C(NCc1ccco1)c1cccc(-c2nnc(-c3ccccc3)o2)c1
-23.1

----------
biological target: Voltage-gated potassium channel subunit beta-2 (Rattus norvegicus); test: enhancers of rat Kvbeta2 NADPH turnover – biochemical, NADPH fluorescence, primary screen (AID 623); settings: Recombinant KvBeta, NADPH fluorescence decrease slope, 10 min; at 10 µM; stronger effect = lower value;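 note: fluorescence intensity change per second fitted from 20 to 320 s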
endpointName: NADPH fluorescence slope
Response field accepts a number only; no unit should be typed.

A selection of reference data follows.
CCn1cc(C(=O)OCc2ccc(F)cc2)c(=O)c2ccc(C)nc21 :: -2.4e-05
Cc1ccccc1-c1nc(CN2CCC(C(=O)NCCCN3CCCC3)CC2)c(C)o1 :: 7.2e-05
CCNS(=O)(=O)c1ccc(S(=O)(=O)N(Cc2ccccn2)C2CCCCC2)cc1 :: -6.9e-05
COc1ccccc1NC(=O)C1(C)Cc2ccccc2C(=O)O1 (centres undefined) :: -3.4e-05
CCOC(=O)c1cnc(-n2nc(C)cc2C)nc1Nc1ccc(N(C)C)cc1 :: -4.7e-05

Value lookup for NADPH fluorescence slope; key = COC(=O)Cn1cnc2sc(C)c(S(=O)(=O)N3CCC(C)CC3)c2c1=O
-2.3e-05

Would you mind telling me what NADPH fluorescence slope value was observed for Cc1ccccc1C(=O)NC1CCN(Cc2nnnn2Cc2ccccc2)CC1 ?
-4.3e-05

Entry Cc1cc(NS(=O)(=O)c2ccc(NC(=O)COc3ccc(Cl)cc3)cc2)no1 has what NADPH fluorescence slope?
-6.7e-05

What value of NADPH fluorescence slope has been reported for the following compound? COc1ccc(Cl)c(N2CCN(CCCNC(=O)Nc3ccc(C)cc3)CC2)c1
-5.7e-05

NADPH fluorescence slope for c1ccc(-c2cn3cccnc3n2)cc1 ?
-3.7e-06

// returns reported NADPH fluorescence slope for input COc1ccc2cc(CN(CCO)C(=O)c3ccc(Br)cc3)c(=O)[nH]c2c1
-4.6e-05

Fill blank: measured NADPH fluorescence slope of the compound Cc1ccc2c(c1)CCCN2C(=O)c1ccc2c(c1)OCO2 is ____.
-5.1e-05

What NADPH fluorescence slope value was documented for this compound, CC(Oc1ccccc1)C(=O)NC1CCN(Cc2ccccc2)CC1 (centres undefined) ?
-1.8e-05

Any idea what its NADPH fluorescence slope is? The compound is COc1ccc(Cl)cc1N1CCN(CCNC(=O)Nc2ccccc2C)CC1
-1.3e-05

What value of NADPH fluorescence slope has been recorded for this entry: N#CC1=C(N)N(c2ccccc2)C(c2ccco2)C1(C#N)C#N (centres undefined)
-1.7e-05

Returns the measured NADPH fluorescence slope for the input compound. Input: Cc1nc(SCC(=O)Nc2ccccc2C(F)(F)F)c2c(=O)n(C)c(=O)n(C)c2n1
8.7e-05
